# Tested on: Fusobacterium nucleatum subsp. animalis
# assay: growth AUC relative to DMSO control (median of replicates) (fraction); higher = more growth (less inhibition), active = hit call of the paper
# setupConditions: 20 µM; 24 h
endpoint: growth AUC

                                   compound    endpoint            result
0                      O=C(O)c1cc(Cl)ccc1Cl  growth AUC  0.994 (inactive)
1               COC(=O)COc1cc(Cl)c(Cl)cc1Cl  growth AUC  0.981 (inactive)
2             COP(=S)(OC)Oc1c(Cl)cc(C)cc1Cl  growth AUC  0.971 (inactive)
3    COP(=S)(OC)Oc1ccc([N+](=O)[O-])c(Cl)c1  growth AUC  0.975 (inactive)
4          CCOP(=S)(OCC)Oc1cc(-c2ccccc2)on1  growth AUC  0.973 (inactive)
5  COP(=O)(OC)C(O)C(Cl)(Cl)Cl (stereo unspecified)  growth AUC  0.973 (inactive)
